All values here come from patent US20160311887A1.

Record form. Attribute: inhibition of APC/fXa. Fill in for each entry.
# target under test: T1, activated Protein C (APC) (human, UniProt P04070 43-197; P04070 212-461)
# T1 construct: also called human plasma APC
# T1 sequence (P04070 43-197, chain 1 of 2): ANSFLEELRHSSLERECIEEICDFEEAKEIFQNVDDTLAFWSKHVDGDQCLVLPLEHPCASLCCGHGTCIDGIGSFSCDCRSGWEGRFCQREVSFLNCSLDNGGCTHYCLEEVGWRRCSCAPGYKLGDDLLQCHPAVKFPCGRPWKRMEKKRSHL
# T1 sequence (P04070 212-461, chain 2 of 2): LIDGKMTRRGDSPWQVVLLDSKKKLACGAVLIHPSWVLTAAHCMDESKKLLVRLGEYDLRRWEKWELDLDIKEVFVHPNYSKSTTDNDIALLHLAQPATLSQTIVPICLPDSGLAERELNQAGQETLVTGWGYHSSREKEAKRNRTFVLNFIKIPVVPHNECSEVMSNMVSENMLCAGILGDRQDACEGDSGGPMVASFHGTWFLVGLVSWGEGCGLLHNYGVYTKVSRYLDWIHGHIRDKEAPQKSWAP
# test details: ratio of rate constants, APC over fXa
# output: bare number, implied unit fold

// Input: FL α1AT Pitts C232S P2KP1′N (other, E. coli, purified; also called 3.B2; 2.H5) SDPQGDAAQKTDTSHHDQDHPTFNKITPNLAEFAFSLYRQLAHQSNSTNIFFSPVSIATAFAMLSLGTKADTHDEILEGLNFNLTEIPEAQIHEGFQELLRTLNQPDSQLQLTTGNGLFLSEGLKLVDKFLEDVKKLYHSEAFTVNFGDTEEAKKQINDYVEKGTQGKIVDLVKELDRDTVFALVNYIFFKGKWERPFEVKDTEEEDFHVDQVTTVKVPMMKRLGMFNIQHSKKLSSWVLLMKYLGNATAIFFLPDEGKLQHLENELTHDIITKFLENEDRRSASLHLPKLSITGTYDLKSVLGQLGITKVFSNGADLSGVTEEAPLKLSKAVHKAVLTIDEKGTEAAGAMFLEAIKRNIPPEVKFNKPFVFLMIEQNTKSPLFMGKVVNPTQK . Output its inhibition of APC/fXa only.
41.5

Tell me inhibition of APC/fXa reported for FL α1AT Pitts C232S P2QP1′K (other, E. coli, purified; also called 4.G4) SDPQGDAAQKTDTSHHDQDHPTFNKITPNLAEFAFSLYRQLAHQSNSTNIFFSPVSIATAFAMLSLGTKADTHDEILEGLNFNLTEIPEAQIHEGFQELLRTLNQPDSQLQLTTGNGLFLSEGLKLVDKFLEDVKKLYHSEAFTVNFGDTEEAKKQINDYVEKGTQGKIVDLVKELDRDTVFALVNYIFFKGKWERPFEVKDTEEEDFHVDQVTTVKVPMMKRLGMFNIQHSKKLSSWVLLMKYLGNATAIFFLPDEGKLQHLENELTHDIITKFLENEDRRSASLHLPKLSITGTYDLKSVLGQLGITKVFSNGADLSGVTEEAPLKLSKAVHKAVLTIDEKGTEAAGAMFLEAIQRKIPPEVKFNKPFVFLMIEQNTKSPLFMGKVVNPTQK
30.9

Annotate the binder FL α1AT Pitts C232S P2KP1′H (other, E. coli, purified; also called 1.A12) SDPQGDAAQKTDTSHHDQDHPTFNKITPNLAEFAFSLYRQLAHQSNSTNIFFSPVSIATAFAMLSLGTKADTHDEILEGLNFNLTEIPEAQIHEGFQELLRTLNQPDSQLQLTTGNGLFLSEGLKLVDKFLEDVKKLYHSEAFTVNFGDTEEAKKQINDYVEKGTQGKIVDLVKELDRDTVFALVNYIFFKGKWERPFEVKDTEEEDFHVDQVTTVKVPMMKRLGMFNIQHSKKLSSWVLLMKYLGNATAIFFLPDEGKLQHLENELTHDIITKFLENEDRRSASLHLPKLSITGTYDLKSVLGQLGITKVFSNGADLSGVTEEAPLKLSKAVHKAVLTIDEKGTEAAGAMFLEAIKRHIPPEVKFNKPFVFLMIEQNTKSPLFMGKVVNPTQK with its measured inhibition of APC/fXa.
46.5
